Test system: Plasmodium falciparum
Assay: microbe, parasite or virus in culture
Conditions: TM91C235
Description: Antimalarial activity against Plasmodium falciparum TM91C235 by hypoxanthine uptake
measured-attribute: log10(IC50) (log10 of the value in nM)
Answers are given as log10 of IC50 in nM.

INSERT INTO assay_data (compound, assayed_target, measured_attribute, assay_value) VALUES
  ('O=C(CCCCCCC(=O)Nc1ccc(-c2cnnn2CC(O)c2cccc(Br)c2)cc1)NO (stereo not given)', 'Plasmodium falciparum', 'log10(IC50)', 2.59);

Using known records, supply log10(IC50) for O=C(CCCCCCC(=O)Nc1cccc(-c2cn(-c3ccccc3)nn2)c1)NO
1.54

Using known records, supply log10(IC50) for O=C(CCCCCCC(=O)Nc1ccc(-c2cnnn2-c2ccccc2)cc1)NO
2.67

Using known records, supply log10(IC50) for O=C(CCCCCCC(=O)Nc1cccc(-c2cnnn2-c2ccccc2)c1)NO
2.70

Using known records, supply log10(IC50) for O=C(CCCCCCC(=O)Nc1ccc(-c2cnnn2Cc2ccc(F)cc2)cc1)NO
2.46

Using known records, supply log10(IC50) for O=C(CCCCCCC(=O)Nc1ccc(-c2cn(CC(O)c3cccc(Br)c3)nn2)cc1)NO (stereo not given)
2.04

Using known records, supply log10(IC50) for O=C(CCCCCCC(=O)Nc1cccc(-c2cn(CC(O)c3cccc(Br)c3)nn2)c1)NO (stereo not given)
2.41

Using known records, supply log10(IC50) for O=C(CCCCCCC(=O)Nc1cccc(-c2cnnn2Cc2ccccc2)c1)NO
2.57

Using known records, supply log10(IC50) for O=C(CCCCCCC(=O)Nc1cccc(-c2cn(Cc3ccc(F)cc3)nn2)c1)NO
2.45

Using known records, supply log10(IC50) for O=C(CCCCCCC(=O)Nc1ccc(-c2cnnn2Cc2ccccc2)cc1)NO
2.72
